Tested on: RPMI-8226
Experiment: NCI tumour cell line growth inhibition, 48 h
The source made the active and inactive calls. Cut-off read from the data, not from the text of the source: active = GI50 up to about 1.1 µM and inactive = higher.
Classes used: active, inactive

>  <COMPOUND>
CC(C)CCCC(C)[C@H]1CCC(C2C[C@@H](O)[C@@H]3CC(O)[C@@H](O)C[C@]3(CO)C2=O)[C@]1(C)CCO (stereo not given in full)

>  <GROUP LABEL>
inactive

$$$$
>  <COMPOUND>
CCN1c2ccccc2-c2c3c1cc(C)cc3c1ccccc1[n+]2CC

>  <GROUP LABEL>
active

$$$$
>  <COMPOUND>
C/C=C(\C)C(=O)OC1C2C(C)=CC(=O)C(O)C2(C)C2C3(O)OCC24C1OC(=O)C(OC(C)=O)C4C(C)C3O (stereo not given)

>  <GROUP LABEL>
active

$$$$
>  <COMPOUND>
CCOC(=O)C(C/C=C/CO)N(C)C(=O)OC(C)(C)C (stereo not given)

>  <GROUP LABEL>
inactive

$$$$
>  <COMPOUND>
CC(NO)/C(=N/O)c1ccco1 (stereo not given)

>  <GROUP LABEL>
inactive

$$$$
>  <COMPOUND>
O=C(c1ccccc1)c1c(CC(O)c2ccccc2)n(C(=O)c2ccccc2)c2ccccc12 (stereo not given)

>  <GROUP LABEL>
inactive

$$$$
>  <COMPOUND>
CCCCCC(/C=C/c1ncccc1OCCCCCC(=O)O)=N\NC1=NCCN1

>  <GROUP LABEL>
inactive

$$$$
>  <COMPOUND>
COC(=O)N/N=C/C(=C/Nc1ccccc1)[N+](=O)[O-]

>  <GROUP LABEL>
inactive

$$$$
>  <COMPOUND>
CC(=O)O[C@H]1CCC2[C@@H]3CCC4=C(O)C(=O)C(C#N)C[C@]4(C)C3CC[C@@]21C (stereo not given in full)

>  <GROUP LABEL>
inactive

$$$$
>  <COMPOUND>
Oc1ccc(C(=C(Br)c2ccccc2)c2ccc(O)cc2)cc1

>  <GROUP LABEL>
inactive

$$$$

Cited source for all entries: ChEMBL document CHEMBL1201862
